EXPERIMENT DESCRIPTION: Rat single dose pharmacokinetics
Type: in vivo, Sprague Dawley rats
CONDITION DESCRIPTION: male, Sprague Dawley, plasma, IV
For each entry below, report its half-life value.
Give the quantity in h, number only.

Q: Would you mind telling me what half-life value was observed for CC(C)N1CC(=O)N(Cc2ccc(C(F)(F)F)cc2)C2(CN(c3cccnn3)C2)C1=O [Compound 13] ?
Result: 0.95

Q: Would you mind telling me what half-life value was observed for C[C@H]1CC[C@H](N2CC(=O)N(Cc3ccc(Cl)cc3)C3(CN(C(N)=O)C3)C2=O)CC1 [Compound 18] ?
Result: 2.15

Q: Would you mind telling me what half-life value was observed for C[C@H]1CC[C@H](N2CC(=O)N(Cc3ccc(Cl)c(F)c3)C3(CN(C(N)=O)C3)C2=O)CC1 [Compound 3] ?
Result: 2.6

Q: Would you mind telling me what half-life value was observed for CC(C)N1CC(=O)N(Cc2ccc(Cl)c(F)c2)C2(CN(c3cccnn3)C2)C1=O [Compound 8] ?
Result: 1.2

Q: Would you mind telling me what half-life value was observed for Cc1cc(CN2C(=O)CN([C@H]3CC[C@H](C)CC3)C(=O)C23CN(C(N)=O)C3)ccc1F [Compound 6] ?
Result: 2

Q: Would you mind telling me what half-life value was observed for CC(C)N1CC(=O)N(Cc2ccc(F)c(Cl)c2)C2(CN(c3cccnn3)C2)C1=O [Compound 9] ?
Result: 0.925

Q: Would you mind telling me what half-life value was observed for C[C@H]1CC[C@H](N2CC(=O)N(Cc3ccc(F)c(Cl)c3)C3(CN(C(N)=O)C3)C2=O)CC1 [Compound 7] ?
Result: 2.1

Q: Would you mind telling me what half-life value was observed for C[C@H]1CC[C@H](N2CC(=O)N(Cc3ccc(F)c(F)c3)C3(CN(C(N)=O)C3)C2=O)CC1 [Compound 5] ?
Result: 3.04

---

EXPERIMENT DESCRIPTION: Rat single dose pharmacokinetics
Format: in vivo, Sprague Dawley rats
CONDITION DESCRIPTION: male, Sprague Dawley, plasma, IV
ASSAY ENDPOINT: clearance (mL/min/kg)
Give the quantity in mL/min/kg, number only.

Q: Would you mind telling me what clearance value was observed for CC(C)N1CC(=O)N(Cc2ccc(F)c(Cl)c2)C2(CN(c3cccnn3)C2)C1=O ?
Result: 27.4

Q: Would you mind telling me what clearance value was observed for C[C@H]1CC[C@H](N2CC(=O)N(Cc3ccc(Cl)cc3)C3(CN(C(N)=O)C3)C2=O)CC1 ?
Result: 63.6

Q: Would you mind telling me what clearance value was observed for C[C@H]1CC[C@H](N2CC(=O)N(Cc3ccc(F)c(Cl)c3)C3(CN(C(N)=O)C3)C2=O)CC1 ?
Result: 61.9

Q: Would you mind telling me what clearance value was observed for C[C@H]1CC[C@H](N2CC(=O)N(Cc3ccc(Cl)c(F)c3)C3(CN(C(N)=O)C3)C2=O)CC1 ?
Result: 78.5

Q: Would you mind telling me what clearance value was observed for CC(C)N1CC(=O)N(Cc2ccc(C(F)(F)F)cc2)C2(CN(c3cccnn3)C2)C1=O ?
Result: 38.9

Q: Would you mind telling me what clearance value was observed for Cc1cc(CN2C(=O)CN([C@H]3CC[C@H](C)CC3)C(=O)C23CN(C(N)=O)C3)ccc1F ?
Result: 76.6

Q: Would you mind telling me what clearance value was observed for C[C@H]1CC[C@H](N2CC(=O)N(Cc3ccc(F)c(F)c3)C3(CN(C(N)=O)C3)C2=O)CC1 ?
Result: 71.1

Q: Would you mind telling me what clearance value was observed for CC(C)N1CC(=O)N(Cc2ccc(Cl)c(F)c2)C2(CN(c3cccnn3)C2)C1=O ?
Result: 79.9
